Neuropeptide Y receptor type 1 (Homo sapiens, UniProt P25929) AC50 data; note: assay procedure not described here
Sequence (P25929 whole entry): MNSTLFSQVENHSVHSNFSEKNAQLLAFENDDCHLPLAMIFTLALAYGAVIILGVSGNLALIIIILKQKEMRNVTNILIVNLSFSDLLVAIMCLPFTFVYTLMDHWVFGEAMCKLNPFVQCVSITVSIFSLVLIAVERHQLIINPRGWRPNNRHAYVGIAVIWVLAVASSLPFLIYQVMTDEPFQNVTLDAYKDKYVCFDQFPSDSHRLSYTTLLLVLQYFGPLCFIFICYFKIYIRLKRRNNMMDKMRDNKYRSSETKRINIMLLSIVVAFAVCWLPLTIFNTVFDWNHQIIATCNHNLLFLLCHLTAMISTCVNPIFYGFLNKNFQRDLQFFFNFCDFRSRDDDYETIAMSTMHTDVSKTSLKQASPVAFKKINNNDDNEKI

Worked set:
>>> result("CN(C)/N=N/c1[nH]cnc1C(N)=O")
"> 10 µM"
>>> result("COc1ccc2c3c1O[C@H]1[C@@H](O)C=C[C@H]4[C@@H](C2)N(C)CC[C@@]341")
"> 30 µM"
>>> result("CCCCN1C[C@H](O)[C@@H](O)[C@H](O)[C@H]1CO")
"> 30 µM"
>>> result("CC(C)Cn1cnc2c(N)nc3ccccc3c21")
"> 10 µM"

// for each compound in input: emit AC50
1. O=C(NCCNCC(O)COc1ccc(O)cc1)N1CCOCC1 (stereo unspecified)
2. CC(C[N+](C)(C)C)OC(N)=O (stereo unspecified)
3. CC[C@H]1[C@@H](O)[C@@H]2[C@H](CC[C@]3(C)[C@@H]([C@H](C)CCC(=O)O)CC[C@@H]23)[C@@]2(C)CC[C@@H](O)C[C@@H]12
4. C[C@]1(O)CC[C@H]2[C@@H]3CCC4=CC(=O)CC[C@]4(C)[C@@]3(F)[C@@H](O)C[C@@]21C
5. Brc1c(NC2=NCCN2)ccc2nccnc12
6. COC(=O)[C@H]1[C@H]2C[C@@H]3c4[nH]c5cc(OC)ccc5c4CCN3C[C@H]2C[C@@H](OC(=O)/C=C/c2cc(OC)c(OC)c(OC)c2)[C@@H]1OC

Return:
1. > 30 µM
2. > 10 µM
3. > 30 µM
4. > 10 µM
5. > 30 µM
6. > 10 µM

// for each compound in input: emit AC50
1. CC=CC(=O)N(CC)c1ccccc1C
2. Cc1cn([C@H]2C[C@H](N=[N+]=[N-])[C@@H](CO)O2)c(=O)[nH]c1=O
3. NC(=O)CN1CC(O)CC1=O (stereo unspecified)

Return:
1. > 10 µM
2. > 30 µM
3. > 30 µM

// for each compound in input: emit AC50
1. O=P1(NCCCl)OCCCN1CCCl (stereo unspecified) [IFOSFAMIDE]
2. Nc1nc(/C(=C/CC(=O)O)C(=O)N[C@@H]2C(=O)N3C(C(=O)O)=CCS[C@H]23)cs1
3. COc1ccccc1OCCNCC(O)c1ccc(C)c(S(N)(=O)=O)c1 (stereo unspecified)
4. CC[C@@H]1C(=O)OC[C@@H]1Cc1cncn1C
5. Cc1ccc(-c2cc(C(F)(F)F)nn2-c2ccc(S(N)(=O)=O)cc2)cc1
6. O=C(NCCN1CCOCC1)c1ccc(Cl)cc1 [MOCLOBEMIDE]
7. CC(C)=CCC/C(C)=C/C=C/C(C)=C/C=C/C(C)=C/C=C/C=C(C)/C=C/C=C(C)/C=C/C=C(\C)CCC=C(C)C
8. O=C1C(O)=C([C@H]2CC[C@H](c3ccc(Cl)cc3)CC2)C(=O)c2ccccc21

Return:
1: > 30 µM; 2: > 30 µM; 3: > 30 µM; 4: > 30 µM; 5: > 10 µM; 6: > 10 µM; 7: > 30 µM; 8: > 30 µM

// for each compound in input: emit AC50
1. CC(C)(C)NCC(O)COc1cccc2c1CCC(=O)N2 (stereo unspecified)
2. CC(=O)NCCCS(=O)(=O)O [ACAMPROSATE]
3. CC(C)C(=O)c1c(C(C)C)nn2ccccc12
4. CC(C(=O)O)c1ccc(N2Cc3ccccc3C2=O)cc1 (stereo unspecified)
5. CO/N=C(\C(=O)N[C@@H]1C(=O)N2C(C(=O)O)=C(CSc3nnnn3C)CS[C@H]12)c1csc(N)n1
6. CC[C@H]1OC(=O)[C@H](C)[C@@H](O[C@H]2C[C@@](C)(OC)[C@@H](O)[C@H](C)O2)[C@H](C)[C@@H](O[C@@H]2O[C@H](C)C[C@H](N(C)C)[C@H]2O)[C@](C)(O)C[C@@H](C)CN(C)[C@H](C)[C@@H](O)[C@]1(C)O
7. O=C(O)/C=C/c1ccc(Cn2ccnc2)cc1
8. Cc1cn([C@H]2C=C[C@@H](CO)O2)c(=O)[nH]c1=O

Return:
1: > 10 µM; 2: > 30 µM; 3: > 30 µM; 4: > 30 µM; 5: > 30 µM; 6: > 30 µM; 7: > 30 µM; 8: > 30 µM

// for each compound in input: emit AC50
1. CCC(C(=O)O)c1ccc(N2Cc3ccccc3C2=O)cc1 (stereo unspecified)
2. COc1cc2nc(N3CCN(C(=O)c4ccco4)CC3)nc(N)c2cc1OC
3. Clc1ccc(C(c2ccccc2Cl)C(Cl)Cl)cc1 (stereo unspecified)

Return:
1: > 30 µM; 2: > 30 µM; 3: > 10 µM

// for each compound in input: emit AC50
1. C=CCC1(C(C)CC)C(=O)NC(=O)NC1=O (stereo unspecified)
2. O=[N+]([O-])c1cn2c(n1)OC[C@@H](OCc1ccc(OC(F)(F)F)cc1)C2
3. C[C@@H]1O[C@@H](O[C@@H]2C=C3CC[C@@H]4[C@H](CC[C@]5(C)[C@@H](c6ccc(=O)oc6)CC[C@]45O)[C@@]3(C)CC2)[C@H](O)[C@H](O)[C@H]1O

Return:
["> 10 µM", "> 30 µM", "> 30 µM"]

Enquiry: Quick one: AC50 of CC(C)(C)C(=O)Oc1ccc(S(=O)(=O)Nc2ccccc2C(=O)NCC(=O)O)cc1 ?
Return: > 30 µM

---

5-hydroxytryptamine receptor 2C (Homo sapiens, UniProt P28335) AC50 data; note: assay procedure not described here
Sequence (P28335 whole entry): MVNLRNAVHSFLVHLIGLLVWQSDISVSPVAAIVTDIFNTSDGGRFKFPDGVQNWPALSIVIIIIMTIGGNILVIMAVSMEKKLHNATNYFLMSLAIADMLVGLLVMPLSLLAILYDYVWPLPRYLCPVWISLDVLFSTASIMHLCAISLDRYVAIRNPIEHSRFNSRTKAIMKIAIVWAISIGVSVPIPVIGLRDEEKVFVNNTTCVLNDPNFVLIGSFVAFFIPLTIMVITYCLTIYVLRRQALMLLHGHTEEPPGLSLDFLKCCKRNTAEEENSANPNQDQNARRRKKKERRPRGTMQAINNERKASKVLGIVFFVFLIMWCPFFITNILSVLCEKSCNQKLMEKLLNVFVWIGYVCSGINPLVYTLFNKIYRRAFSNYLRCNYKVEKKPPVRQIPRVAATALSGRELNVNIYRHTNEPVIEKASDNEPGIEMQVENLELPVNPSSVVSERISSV

Worked set:
>>> result("CCCN(CCC)C(=O)C(CCC(=O)O)NC(=O)c1ccccc1 (centres undefined) [PROGLUMIDE]")
"> 30 µM"
>>> result("Cc1cccc(C(C)c2cnc[nH]2)c1C (centres undefined)")
"> 30 µM"
>>> result("COc1ccc2c3c1O[C@H]1C(=O)CC[C@@]4(O)[C@@H](C2)N(C)CC[C@]314")
"> 30 µM"

// for each compound in input: emit AC50
1. Cn1nnc2c(C(N)=O)ncn2c1=O [TEMOZOLOMIDE]
2. O=C(O)C[C@H](O)C[C@H](O)/C=C/c1c(C2CC2)nc2ccccc2c1-c1ccc(F)cc1
3. CC1(C)O[C@@H]2C[C@H]3[C@@H]4CCC5=CC(=O)C=C[C@]5(C)[C@H]4[C@@H](O)C[C@]3(C)[C@]2(C(=O)CO)O1 [DESONIDE]

Return:
> 30 µM
> 30 µM
> 30 µM

// for each compound in input: emit AC50
1. C[C@H](N)[C@H](O)c1cccc(O)c1
2. NC(=O)OCC(COC(N)=O)c1ccccc1 [FELBAMATE]
3. COc1ccc(C(=O)Nc2ccccc2CCC2CCCCN2C)cc1 (centres undefined) [ENCAINIDE]

Return:
1. > 30 µM
2. > 30 µM
3. 0.81 µM

---

system_tested: Nuclear receptor subfamily 1 group I member 3 (Homo sapiens, UniProt Q14994); note: assay procedure not described here
Sequence (Q14994 whole entry): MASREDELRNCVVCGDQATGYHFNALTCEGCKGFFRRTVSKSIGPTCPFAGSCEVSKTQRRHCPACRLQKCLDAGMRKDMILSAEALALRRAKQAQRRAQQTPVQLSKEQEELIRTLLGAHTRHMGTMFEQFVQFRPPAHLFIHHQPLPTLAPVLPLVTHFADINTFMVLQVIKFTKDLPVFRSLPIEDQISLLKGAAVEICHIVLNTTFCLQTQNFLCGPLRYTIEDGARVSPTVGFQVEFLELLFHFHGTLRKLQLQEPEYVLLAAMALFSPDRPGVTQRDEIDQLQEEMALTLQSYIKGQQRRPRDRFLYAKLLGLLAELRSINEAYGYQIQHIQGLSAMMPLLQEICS
Type: functional
value_type: AC50

Worked set:
>>> result("CCC(C)n1ncn(-c2ccc(N3CCN(c4ccc(OCC5COC(Cn6cncn6)(c6ccc(Cl)cc6Cl)O5)cc4)CC3)cc2)c1=O (centres undefined) [ITRACONAZOLE]")
"> 30 µM"
>>> result("N[C@@H]1[C@H]2CN(c3nc4c(cc3F)c(=O)c(C(=O)O)cn4-c3ccc(F)cc3F)C[C@@H]12 [TROVAFLOXACIN]")
"> 30 µM"
>>> result("Cc1c(C(=O)NN2CCCCC2)nn(-c2ccc(Cl)cc2Cl)c1-c1ccc(Cl)cc1 [RIMONABANT]")
"6.6 µM"

Here is the next item to consider.
Enquiry: Please state recorded AC50 (tested on Nuclear receptor subfamily 1 group I member 3 (Homo sapiens, UniProt Q14994)) of CN1C(C(=O)Nc2ccccn2)=C(O)c2sc(Cl)cc2S1(=O)=O [LORNOXICAM]; note: assay procedure not described here
Return: > 30 µM

---

system_tested: Alpha-1A adrenergic receptor (Homo sapiens, UniProt P35348); note: assay procedure not described here
Sequence (P35348 whole entry): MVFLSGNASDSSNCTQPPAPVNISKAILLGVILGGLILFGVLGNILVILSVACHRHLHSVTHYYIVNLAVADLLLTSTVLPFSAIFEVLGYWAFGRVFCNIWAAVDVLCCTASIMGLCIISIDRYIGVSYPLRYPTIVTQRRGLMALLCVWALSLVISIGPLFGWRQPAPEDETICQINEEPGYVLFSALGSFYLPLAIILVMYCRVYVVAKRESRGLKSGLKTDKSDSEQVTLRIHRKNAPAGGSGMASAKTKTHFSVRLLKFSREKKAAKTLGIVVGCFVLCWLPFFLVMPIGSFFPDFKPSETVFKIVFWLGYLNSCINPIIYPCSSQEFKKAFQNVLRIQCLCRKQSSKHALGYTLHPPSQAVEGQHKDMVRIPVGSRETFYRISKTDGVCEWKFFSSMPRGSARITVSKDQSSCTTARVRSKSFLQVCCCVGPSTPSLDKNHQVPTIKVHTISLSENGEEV
Format: functional, cell-based
Exercise: for every item that follows, state its recorded AC50.

>>> result("NC(=O)CN1CC(O)CC1=O (centres undefined)")
"> 30 µM"
>>> result("COc1ccc2c3c1O[C@H]1C(=O)CC[C@@]4(O)[C@@H](C2)N(C)CC[C@]314")
"> 30 µM"
>>> result("CNS(=O)(=O)Cc1ccc2[nH]cc(CCN(C)C)c2c1")
"> 30 µM"
>>> result("CN1C(=O)C(O)N=C(c2ccccc2Cl)c2cc(Cl)ccc21 (centres undefined)")
"> 30 µM"
>>> result("Cc1nc([N+](=O)[O-])cn1-c1ccc([N+](=O)[O-])cc1")
"> 30 µM"
>>> result("OC(CNCC(O)C1CCc2cc(F)ccc2O1)C1CCc2cc(F)ccc2O1 (centres undefined)")
"3.1 µM"
>>> result("CCC(C)n1ncn(-c2ccc(N3CCN(c4ccc(OCC5COC(Cn6cncn6)(c6ccc(Cl)cc6Cl)O5)cc4)CC3)cc2)c1=O (centres undefined)")
"> 30 µM"
>>> result("CN1CCC(=C2c3ccccc3CCc3sccc32)CC1")
"3.32 µM"

Here is the next item to consider.
Enquiry: Quick one: AC50 of CC[C@@H](C(N)=O)N1CCCC1=O ?
Return: > 30 µM
